Measured values drawn from the supplement of paper PMC9170038 for this set.

# Tested on: K4 kissing-loop RNA reporter;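 note: bound reporter read as fluorescence of individual clusters on recovered sequencing chips by microscopy, with normalized cluster intensities fitted with a binding model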
# Test Description: apparent KD of K4 kissing-loop reporter; higher = weaker reporter binding
# Experimental Setup: Eterna round: R107; input ligand: none
// label = rule met if apparent KD of K4 kissing-loop reporter is not less than 400 nM, otherwise rule not met

Say whether GGCGGCUGCGCGCAAGCGCAGCCGGCCGAUACCAGCGCGACGGCGCGCCCUUGGCAGCGGCGCCGAGUGAUGUUCGGCCUGCCGU [#2 Same State - Theophylline A Attempt #22 (HarryS)] shows apparent KD of K4 kissing-loop reporter of 400 nM or more.
rule not met

Say whether AGGCACGAGCAAGGAUAUUGAGUAGAGUGAUGUUCUGCCUGGGUUGGCUCGGAAGAGCCUUCUCAGCGAGAAGGUGCUCGUGCCU [#2 Same State - FMN A Attempt #24 (HarryS)] shows apparent KD of K4 kissing-loop reporter of 400 nM or more.
rule met

Say whether GUCGGCCGCGCGCAAGCGCGGCCGGCCGAUACCAGCGCGCCGGUGCGCCCUUGGCAGCGGCACCGAGUGAUGUUCGGUCAGACGA [#2 Same State - Theophylline A Attempt #6 (HarryS)] shows apparent KD of K4 kissing-loop reporter of 400 nM or more.
rule not met

Say whether CUGUACAUCUCGGCCGCCACUGACAUGAGUGAUGUUCAUGUACAUGAGUGAUGUUCAUGUUCGGCCAGGACCGGGAGGUGUGCAG [KL-SSTryp-B2 #analogue #double KL] shows apparent KD of K4 kissing-loop reporter of 400 nM or more.
rule not met

Say whether UAACUCUUGCAGUGAUGUUGCAAGUAAGCUCAGGAUAUCAGGAAACUGAGAAGGGAGCAUCCUGAGCUUCUGCAAGAGCUCAGAA [KL-SSFMN-A4] shows apparent KD of K4 kissing-loop reporter of 400 nM or more.
rule not met

---
Say whether CCAGGACGAUGAGGAUGAUGAAUUACUGAAGGAGCGCAUAUGGUUGCAGGUAGGUCGCGGUGAACAAGUAUAGUGAUGUUAUGCC [SSArgA.V] shows apparent KD of K4 kissing-loop reporter of 400 nM or more.
rule met

Say whether GGAGAGCGAAAAGGAUAUGCGUCCGUCAAAAUUAUGUAGCGCGGAAAAUGGUAGUGAUGUUGCAAAGCAGAAGGUUUCAGAUGUA [theeternabot_sameState_KL_FMN_B_43] shows apparent KD of K4 kissing-loop reporter of 400 nM or more.
rule met

Say whether GGACUACUAUGUCCCAUACAAACAAGAGAUACCAGCCAUCAUAGAGGCCCUUGGCAGCUCAUAUAAUCCAGUGAUGUUGGAUUUC [Beveus] shows apparent KD of K4 kissing-loop reporter of 400 nM or more.
rule not met

Say whether ACUAUGGAGUGAUGUUCCCGCGUCAUUGAUACCAGAAUGUAUACCUUCCCUUGGCAGCAAUUCAUCGCACGUAUACUUAUACAAG [theeternabot_sameState_KL_Theo_A_31] shows apparent KD of K4 kissing-loop reporter of 400 nM or more.
rule met

Say whether AGAGUUAAUUAGUCAUUUUUCACAUUAAGUCAGGAUAUCGUAUUUUCGAGAAGGGACACAUGCUAGUGAUGUUAGCUAUUUCUCA [JR_Nu_ExcFMNA_Sub021] shows apparent KD of K4 kissing-loop reporter of 400 nM or more.
rule not met

Say whether UGAUUGGCGAAAGUAGUGAUGUUACGAAUAUAGGAUAUUAGAGGAAUAAGAAGGAUAAAUGAGAAAUAGGUAAAUUGUUGGUUGG [FMN same state] shows apparent KD of K4 kissing-loop reporter of 400 nM or more.
rule not met

====

# System: MS2 coat protein
# Test Description: apparent KD of MS2 coat protein; designed switch direction (-1 OFF switch, 1 ON switch): -1; higher = weaker reporter binding
# Experimental Setup: Eterna round: R95; input ligand: FMN 200 uM
// label = fulfilled if apparent KD of MS2 coat protein is not less than 0.04 µM, otherwise not fulfilled

Say whether GCCAGAGCAGGAUAUUCAGUAUCACACAUGAGGAUCACCCAUGUCCACGGAAACGUGGAGGGAGAAGGGCUCUGGC [Mat - Exclusion 5 - Eli mod - D96] (puzzle: Exclusion 5) shows apparent KD of MS2 coat protein of 0.04 µM or more.
not fulfilled

Say whether GCGAAAGCAACAAGUGAAAACAUGAGGAUCACCCAUGUCCUCAUUUGCUCGUCUUAUAAGCUAUGCGAAAGCAUAGC [Sensor 3, v1 - 10] (puzzle: Sensor v3, turn-off variant 1) shows apparent KD of MS2 coat protein of 0.04 µM or more.
fulfilled

Say whether AGUACUAACUCGAUAGUGUUAGUACAAUAAGCUUGUGAAACAUGAGGAUCACCCAUGUCCUCAUAAGCUCGUCUUAU [salish99_TOv2_r3_1004] (puzzle: Sensor v3, turn-off variant 2) shows apparent KD of MS2 coat protein of 0.04 µM or more.
not fulfilled

Say whether AAGAAGCGAGGAUAUGCAAAAGAAAAGAAGAAGAAGAAAGAACAUGAGGAUCACCCAUGUAGAAGGCGCAAGAA [Mine, too!] (puzzle: Exclusion 2) shows apparent KD of MS2 coat protein of 0.04 µM or more.
not fulfilled

---
Say whether AGUAACUAUCACGAAAGUGAUAGUUACACAAGCAGUGAAACAUGAGGAUCACCCAUGUCCUCAUUAGCUCGUCUUAU [Sensor 3 - 32] (puzzle: Sensor v3, turn-off variant 2) shows apparent KD of MS2 coat protein of 0.04 µM or more.
fulfilled

====

# Test system: MS2 coat protein
# Test Description: apparent KD of MS2 coat protein; designed switch direction (-1 OFF switch, 1 ON switch): -1; higher = weaker reporter binding
# Experimental Setup: input ligand: none
Measurement Kind: apparent KD of MS2 coat protein (nM)
Give a bare numeral; the unit nM is implied.

Example sequences with recorded apparent KD of MS2 coat protein:
For the record GUAAACGCAGAGGAUAUAUCAGAUCAAAGCUGCAUAGAAGGCUGCACAUGAGGAUCACCCAUGUGGUCUUUAAG [Mat - Exclusion 6 - JL Mod - D4] (Eterna round: R97, puzzle: Exclusion 6) , what value of apparent KD of MS2 coat protein is listed for MS2 coat protein?
18.4

For the record UAUUAGCAAGCGAGUCUUCACAUGAGGAUCACCCAUGUGCUCGUCUUAUAAGGUACUGUGACGAAAGUCACGGUACC [Eli 91 v32] (Eterna round: R97, puzzle: Sensor, turn-off variant 1) , what value of apparent KD of MS2 coat protein is listed for MS2 coat protein?
14.8

// next entry
For the record GAAAACGAAGAGGAUAUUUGAUAUCAUAGCUUCAAAGAAGGCUUCACAUGAGGAUCACCCAUGUGAUCUUCAAU [Mat - Exclusion 6 - JL Mod - D19] (Eterna round: R97, puzzle: Exclusion 6) , what value of apparent KD of MS2 coat protein is listed for MS2 coat protein?
23.8

====

# Tested on: MS2 coat protein
# Test Description: apparent KD of MS2 coat protein; designed switch direction (-1 OFF switch, 1 ON switch): -1; higher = weaker reporter binding
# Experimental Setup: input ligand: microRNA oligo, concentration not stated
Measurement Kind: apparent KD of MS2 coat protein (nM)
Give a bare numeral; the unit nM is implied.

Example sequences with recorded apparent KD of MS2 coat protein:
For the record UACCUGAGGCUUUGCUUUAGGUAUACAUGAGGAUCACCCAUGUAGGAUAUGGUAGGCUUUGCUUACCAGAAGGACAUGUUAAUU [JL ENG3 1.09] (Eterna round: R96, puzzle: Exclusion NG 3) , what value of apparent KD of MS2 coat protein is listed for MS2 coat protein?
30.9

For the record GCACGGAGUGUAGGAUAUCUGUGCGAUUAGCUCAGAGAAGGACACAUGAGGAUCACCCAUGUGUAACUCAAUACUAAUCCGUGC [Eli exng1 - 077] (Eterna round: R96, puzzle: Exclusion NG 1) , what value of apparent KD of MS2 coat protein is listed for MS2 coat protein?
7.89

For the record UUGAAGUCGUCAGGAUAUAGUUUUAAUGUCAUGCGUAUGUUCUUACAUGAGGAUCACCCAUGUCGCUAGAAGGGACUAAAGAUU [JR_ExcNG2_Sub010] (Eterna round: R96, puzzle: Exclusion NG 2) , what value of apparent KD of MS2 coat protein is listed for MS2 coat protein?
33.4

// next entry
For the record UACCUGAGGCAAAGCUUUAGGUAAACAUGAGGAUCACCCAUGUAGGAUAUGGUAGGCAAAGCUUACCAGAAGGACAUGUUAAUU [Mat - Exclusion NG 3 - Mod of JL - D34] (Eterna round: R96, puzzle: Exclusion NG 3) , what value of apparent KD of MS2 coat protein is listed for MS2 coat protein?
79.5

====

# Tested on: MS2 coat protein
# Test Description: apparent KD of MS2 coat protein; designed switch direction (-1 OFF switch, 1 ON switch): -1; higher = weaker reporter binding
# Experimental Setup: input ligand: FMN 200 uM
// label = rule met if apparent KD of MS2 coat protein is not less than 100 nM, otherwise rule not met

Say whether GUUUUACAUGAGGAUCACCCAUGUGAGGAUAUGUUAUUAAUAGCGAUAGUUAUUGGUGGCAGAAGGCGCGUGAU [JR_Exc1_Sub011] (Eterna round: R97, puzzle: Exclusion 1) shows apparent KD of MS2 coat protein of 100 nM or more.
rule met

Say whether AAGAUUAUUUCAGGAUAUAGAUUGAUGAUCGUACUAGAAGGGAAAACACAGUACAUGAGGAUCACCCAUGUUCAUGUAGUGCCA [Eternabot solution 29] (Eterna round: R96, puzzle: Exclusion NG 1) shows apparent KD of MS2 coat protein of 100 nM or more.
rule not met

Say whether UCUAUAGGGCUGCAGGCUUACAUGAGGAUCACCCAUGUAUAGGGUUUUCUACGCGCUCGUCAUCAUACAUUAAUUCG [Eternabot (L1) Solution 31] (Eterna round: R97, puzzle: Sensor, turn-off variant 1) shows apparent KD of MS2 coat protein of 100 nM or more.
rule not met

Say whether ACAUGAGGAUCACCCAUGUAAUCAUAAUGGCUGAUGUAGAGUCAGGAUAUGUGUGGCUUACUAUCGCAGAAGGGACAAGACUGG [Deportation 33 - Jieux - Exclusion NG 3] (Eterna round: R96, puzzle: Exclusion NG 3) shows apparent KD of MS2 coat protein of 100 nM or more.
rule not met

Next, consider the following sequence.
Say whether CUACUGAAGCUUUGCUUUAGUCGACAUGAGGAUCACCCAUGUUAGGAUAUGGUAGGCUUUGCUUACUAGAAGGAUAGAGUGAUC [salish99_ExNG3_r04_603] (Eterna round: R96, puzzle: Exclusion NG 3) shows apparent KD of MS2 coat protein of 100 nM or more.
rule met
